Species on record: Homo sapiens
measurementProtocol: Selectivity ratio of IC50 for human cytosolic 17beta-HSD1 to IC50 for human microsomal 17beta-HSD2
readoutKind: Ratio IC50
// no unit, no text: just the number

Below: 3 molecules and their reported Ratio IC50.
{"smi": "Cc1cc(-c2ccc(C(=O)c3cccc(O)c3)nc2)ccc1O", "Ratio IC50": 21}
{"smi": "Cc1cc(-c2ccc(C(=O)c3cccc(O)c3)cc2)ccc1O", "Ratio IC50": 3}
{"smi": "O=C(c1ccc(F)c(O)c1)c1ccc(-c2ccc(O)c(Cl)c2)cn1", "Ratio IC50": 7}

query: Data request, read-out Ratio IC50, for `O=C(c1ccc(-c2ccc(O)cc2Cl)cc1)c1cccc(O)c1`
result: 11

* * *

assaySystem: 17-beta-hydroxysteroid dehydrogenase type 2 (Homo sapiens)
Sequence (P37059 whole entry): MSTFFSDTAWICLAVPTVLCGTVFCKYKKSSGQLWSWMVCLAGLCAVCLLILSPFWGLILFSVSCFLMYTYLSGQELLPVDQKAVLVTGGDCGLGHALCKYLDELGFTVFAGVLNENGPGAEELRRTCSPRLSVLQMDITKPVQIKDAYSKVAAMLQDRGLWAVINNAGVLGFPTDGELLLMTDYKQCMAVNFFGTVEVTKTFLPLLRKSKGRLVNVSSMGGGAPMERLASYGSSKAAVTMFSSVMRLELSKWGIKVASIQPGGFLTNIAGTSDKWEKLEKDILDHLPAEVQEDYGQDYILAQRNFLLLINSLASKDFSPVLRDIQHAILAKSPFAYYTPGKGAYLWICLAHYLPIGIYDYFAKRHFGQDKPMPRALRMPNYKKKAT
measurementProtocol: Inhibition of human microsomal 17beta-HSD2 in cell-free system using [2,4,6,7-3H]E2 as substrate after 20 mins by radioflow detector
# key: entry, value: pIC50
Bear in mind: pIC50 is minus log10 of a mol/L concentration; give just that figure.

{"smi": "Cc1cc(-c2ccc(C(=O)c3ccc(F)c(O)c3)cc2)ccc1O", "assaySystem": "17-beta-hydroxysteroid dehydrogenase type 2 (Homo sapiens)", "recordedValue": 7.47}
{"smi": "O=C(c1ccc(-c2ccc(O)c(Cl)c2)cc1)c1ccc(F)c(O)c1", "assaySystem": "17-beta-hydroxysteroid dehydrogenase type 2 (Homo sapiens)", "recordedValue": 7.62}

Then this molecule:
query: Data request, read-out pIC50, for `O=C(c1ccc(-c2ccc(O)cc2Cl)cc1)c1cccc(O)c1`
result: 6.75

* * *

assaySystem: 17-beta-hydroxysteroid dehydrogenase type 1 (Homo sapiens)
measurementProtocol: Inhibition of human cytosolic 17beta-HSD1 using [2,4,6,7-3H]E1 as substrate at 1 uM after 10 mins by radioflow detector
# key: entry, value: inhibition

{"smi": "Cc1cc(-c2cccc(C(=O)c3cc(O)cc(F)c3)n2)ccc1O", "inhibition": "< 10%"}
{"smi": "Cc1cc(O)ccc1-c1cccc(C(=O)c2cccc(O)c2)n1", "inhibition": "< 10%"}
{"smi": "Cc1cc(-c2cccc(C(=O)c3cccc(O)c3)n2)ccc1O", "inhibition": "< 10%"}
{"smi": "Cc1cc(-c2ccc(C(=O)c3ccc(F)c(O)c3)nc2)ccc1O", "inhibition": "47%"}
{"smi": "Cc1cc(-c2cccc(C(=O)c3ccc(C)c(O)c3)n2)ccc1O", "inhibition": "< 10%"}
{"smi": "O=C(c1cccc(O)c1)c1cccc(-c2cccc(O)c2)n1", "inhibition": "< 10%"}
{"smi": "Cc1cc(-c2cccc(C(=O)c3ccc(F)c(O)c3)n2)ccc1O", "inhibition": "< 10%"}
{"smi": "O=C(c1cccc(O)c1)c1cccc(-c2ccccc2O)n1", "inhibition": "< 10%"}

query: Request body: readout inhibition, system 17-beta-hydroxysteroid dehydrogenase type 1 (Homo sapiens), query `O=C(c1cccc(O)c1)c1cccc(-c2ccc(O)c(Cl)c2)n1` . Return the value.
result: < 10%

query: Request body: readout inhibition, system 17-beta-hydroxysteroid dehydrogenase type 1 (Homo sapiens), query `O=C(c1cccc(O)c1)c1cccc(-c2ccc(O)cc2)n1` . Return the value.
result: < 10%
